Let's go through some pKi measurements on human dopamine D3 receptors (Homo sapiens, UniProt P35462) together.
Sequence (P35462 whole entry): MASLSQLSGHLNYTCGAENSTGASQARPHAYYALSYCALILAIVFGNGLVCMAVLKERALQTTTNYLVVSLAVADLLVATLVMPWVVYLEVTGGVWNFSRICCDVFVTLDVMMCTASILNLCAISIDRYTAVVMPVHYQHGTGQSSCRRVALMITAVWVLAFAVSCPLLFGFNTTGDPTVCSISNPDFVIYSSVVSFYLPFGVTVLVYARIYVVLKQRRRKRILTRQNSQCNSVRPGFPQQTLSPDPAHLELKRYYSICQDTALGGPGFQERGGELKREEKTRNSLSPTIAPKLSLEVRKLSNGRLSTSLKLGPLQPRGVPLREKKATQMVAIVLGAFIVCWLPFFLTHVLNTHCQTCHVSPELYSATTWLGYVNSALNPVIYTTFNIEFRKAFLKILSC
pKi: −log10 of the molar value.

# molecule, pKi
data = [
    ("CC(C)(C)c1nc(N2CCN(CC[C@H]3CC[C@@H](NC(=O)[C@H]4CC[C@H](O)CC4)CC3)CC2)cc(C2(C)CC2)n1 [Compound 28]", "> 8.00"),
    ("CC(C)(C)c1nc(C2CCC2)cc(N2CCN(CC[C@H]3CC[C@H](NC(=O)[C@H]4C[C@H](O)C4)CC3)CC2)n1.O=C(O)C(F)(F)F [Compound 38]", "> 8.00"),
    ("COCCc1cc(N2CCN(CC[C@H]3C[C@H](NC(=O)[C@H]4CC[C@H](O)CC4)C3)CC2)nc(C(C)(C)C)n1.O=C(O)C(F)(F)F [Compound 7]", "> 8.00"),
    ("CC(C)c1cc(N2CCN(CCC3CCC(NC(=O)C4CCC(O)CC4)CC3)CC2)nc(C(C)(C)C)n1 (stereo not drawn) [Compound 31]", "> 8.00"),
    ("CC(C)(C)c1nc(C2CCC2)cc(N2CCN(CC[C@H]3CC[C@H](NC(=O)[C@H]4CC[C@@H](O)CC4)CC3)CC2)n1.O=C(O)C(F)(F)F [Compound 14]", "> 8.00"),
    ("COCCc1cc(N2CCN(CCC3CCC(NC(=O)C4CCC(O)CC4)CC3)C[C@H]2C)nc(C(C)(C)C)n1 (stereo partly drawn) [Compound 33]", "> 7.30"),
]

###

- study_target: human dopamine D2L receptors (long isoform) (Homo sapiens, UniProt P14416)
- Construct: expressed in transfected cells; host or cells: HEK-293
- Sequence (P14416 whole entry, canonical isoform): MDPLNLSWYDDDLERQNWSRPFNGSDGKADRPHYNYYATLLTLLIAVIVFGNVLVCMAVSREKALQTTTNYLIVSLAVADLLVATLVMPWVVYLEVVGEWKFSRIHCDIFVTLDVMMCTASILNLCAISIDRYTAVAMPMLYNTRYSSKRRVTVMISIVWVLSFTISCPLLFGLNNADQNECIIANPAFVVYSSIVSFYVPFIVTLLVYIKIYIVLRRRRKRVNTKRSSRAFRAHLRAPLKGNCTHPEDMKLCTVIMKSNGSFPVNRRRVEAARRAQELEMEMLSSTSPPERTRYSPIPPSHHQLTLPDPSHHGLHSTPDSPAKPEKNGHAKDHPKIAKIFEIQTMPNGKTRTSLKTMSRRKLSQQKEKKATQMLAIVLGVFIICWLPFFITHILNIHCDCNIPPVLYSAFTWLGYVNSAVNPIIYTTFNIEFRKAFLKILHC
- assay_info: Dopamine D2L receptor binding, [125I]-iodospiperone displacement
- measurement_context: selectivity ratio Ki (D2L)/Ki (D3)

# molecule, D2/D3, Ki (D2L)/Ki (D3)
data = [
    ("CC(C)(C)c1cc(N2CCN(CC[C@H]3CC[C@@H](NC(=O)[C@H]4CC[C@H](O)CC4)CC3)CC2)nc(C(C)(C)C)n1", "+++ (+++>50)"),
    ("COCCc1cc(N2CCN(CC[C@H]3CC[C@@H](NC(=O)C4CC(O)(C(F)(F)F)C4)CC3)CC2)nc(C(C)(C)C)n1 (relative stereo)", "+++ (+++>50)"),
]

###

- study_target: human dopamine D2L receptors (long isoform) (Homo sapiens, UniProt P14416)
- Construct: expressed in transfected cells; host or cells: HEK-293
- assay_info: Dopamine D2L receptor binding, [125I]-iodospiperone displacement
- measurement_context: selectivity ratio Ki (D2L)/Ki (D3)

# molecule, D2/D3, Ki (D2L)/Ki (D3)
data = [
    ("CC(C)(C)c1nc(N2CCN(CC[C@H]3CC[C@@H](NC(=O)[C@H]4CC[C@H](O)CC4)CC3)CC2)cc(C(F)(F)F)n1", "+++ (+++>50)"),
    ("CC(C)(C)c1nc(C2CCC2)cc(N2CCN(CC[C@H]3CC[C@H](NC(=O)[C@H]4C[C@@H](O)C4)CC3)CC2)n1", "++ (++>20)"),
    ("COCCc1cc(N2CCN(CC[C@H]3C[C@H](NC(=O)C4CCC(O)CC4)C3)CC2)nc(C(C)(C)C)n1 (relative stereo)", "++ (++>20)"),
    ("COCCc1cc(N2CCN(CC[C@H]3C[C@@H](NC(=O)[C@H]4CC[C@H](O)CC4)C3)CC2)nc(C(C)(C)C)n1.O=C(O)C(F)(F)F", "+++ (+++>50)"),
    ("CC(C)c1cc(N2CCN(CC[C@H]3CC[C@H](NC(=O)[C@H]4CC[C@H](O)CC4)CC3)CC2)nc(C(C)(C)C)n1", "++ (++>20)"),
]

###

- study_target: human dopamine D2L receptors (long isoform) (Homo sapiens, UniProt P14416)
- Construct: expressed in transfected cells; host or cells: HEK-293
- assay_info: Dopamine D2L receptor binding, [125I]-iodospiperone displacement
- measurement_context: selectivity ratio Ki (D2L)/Ki (D3)
endpoint_name: D2/D3, Ki (D2L)/Ki (D3)

# molecule, recorded_measurement
measured = [
    ("CC(C)(C)c1nc(C2CCC2)cc(N2CCN(CC[C@H]3CC[C@H](NC(=O)[C@H]4C[C@H](O)C4)CC3)CC2)n1.O=C(O)C(F)(F)F", "++ (++>20)"),
    ("COCCc1cc(N2CCN(CCC3CCC(NC(=O)C4CCC(O)CC4)CC3)C[C@H]2C)nc(C(C)(C)C)n1 (stereo partly shown)", "+++ (+++>50)"),
    ("COCc1cc(N2CCN(CC[C@H]3CC[C@H](NC(=O)[C@H]4CC[C@H](O)CC4)CC3)CC2)nc(C(C)(C)C)n1", "+++ (+++>50)"),
    ("CC(C)(C)c1nc(C(F)F)cc(N2CCN(CC[C@H]3CC[C@@H](NC(=O)[C@H]4CC[C@H](O)CC4)CC3)CC2)n1", "++ (++>20)"),
    ("COCCc1cc(N2CCN(CC[C@H]3CC[C@@H](NC(=O)[C@H]4CC[C@H](O)CC4)CC3)CC2)nc(C(C)(C)C)n1", "++ (++>20)"),
    ("CC(C)(C)c1nc(C2CCC2)cc(N2CCN(CC[C@H]3C[C@@H](NC(=O)[C@H]4CC[C@H](O)CC4)C3)CC2)n1", "+++ (+++>50)"),
    ("COCCc1cc(N2CCN(CC[C@H]3CC[C@H](NC(=O)[C@H]4CC[C@H](O)CC4)CC3)CC2)nc(C(C)(C)C)n1", "++ (++>20)"),
    ("COCCc1cc(N2CCN(CC[C@H]3CC[C@@H](NC(=O)[C@H]4CC[C@@H](O)CC4)CC3)CC2)nc(C(C)(C)C)n1", "++ (++>20)"),
    ("CC(C)(C)c1nc(C2CCC2)cc(N2CCN(CC[C@H]3CC[C@H](NC(=O)[C@H]4CC[C@@H](O)CC4)CC3)CC2)n1.O=C(O)C(F)(F)F", "++ (++>20)"),
    ("CC(C)(C)c1nc(N2CCN(CC[C@H]3CC[C@@H](NC(=O)[C@H]4CC[C@H](O)CC4)CC3)CC2)cc(C2(C)CC2)n1", "++ (++>20)"),
    ("CC(C)(C)c1nc(C2CCCC2)cc(N2CCN(CC[C@H]3CC[C@H](NC(=O)[C@H]4CC[C@H](O)CC4)CC3)CC2)n1", "+ (+>10)"),
    ("CC(C)(C)c1nc(C(F)F)cc(N2CCN(CCC3CCC(NC(=O)C4CCC(O)CC4)CC3)CC2)n1 (stereo not shown)", "+ (+>10)"),
    ("CC(C)(C)c1nc(N2CCN(CC[C@H]3CC[C@H](NC(=O)[C@H]4CC[C@H](O)CC4)CC3)CC2)cc(C(F)(F)F)n1", "++ (++>20)"),
    ("COCCc1cc(N2CCN(CC[C@H]3CC[C@H](NC(=O)C4CC(O)(C(F)(F)F)C4)CC3)CC2)nc(C(C)(C)C)n1 (relative stereo)", "++ (++>20)"),
    ("CC(C)(C)c1cc(N2CCN(CC[C@H]3CC[C@H](NC(=O)[C@H]4CC[C@H](O)CC4)CC3)CC2)nc(C(C)(C)C)n1", "++ (++>20)"),
    ("CC(C)(C)c1nc(C2CCC2)cc(N2CCN(CC[C@H]3CC[C@H](NC(=O)[C@H]4CC[C@H](O)CC4)CC3)CC2)n1", "+++ (+++>50)"),
    ("COCCc1cc(N2CCN(CC[C@H]3CC[C@H](NC(=O)[C@H]4C[C@@H](O)C4)CC3)CC2)nc(C(C)(C)C)n1", "+++ (+++>50)"),
    ("CC(C)(C)c1nc(N2CCN(CCC3CCC(NC(=O)C4CCC(O)CC4)CC3)CC2)cc(C2(C)CC2)n1 (stereo not shown)", "++ (++>20)"),
    ("COCCc1cc(N2CCN(CC[C@H]3CC[C@@H](NC(=O)[C@H]4C[C@@H](O)C4)CC3)CC2)nc(C(C)(C)C)n1", "+++ (+++>50)"),
]
